# Experimental Target: UniProt Q9UNA0
# Sequence (Q9UNA0 262-930): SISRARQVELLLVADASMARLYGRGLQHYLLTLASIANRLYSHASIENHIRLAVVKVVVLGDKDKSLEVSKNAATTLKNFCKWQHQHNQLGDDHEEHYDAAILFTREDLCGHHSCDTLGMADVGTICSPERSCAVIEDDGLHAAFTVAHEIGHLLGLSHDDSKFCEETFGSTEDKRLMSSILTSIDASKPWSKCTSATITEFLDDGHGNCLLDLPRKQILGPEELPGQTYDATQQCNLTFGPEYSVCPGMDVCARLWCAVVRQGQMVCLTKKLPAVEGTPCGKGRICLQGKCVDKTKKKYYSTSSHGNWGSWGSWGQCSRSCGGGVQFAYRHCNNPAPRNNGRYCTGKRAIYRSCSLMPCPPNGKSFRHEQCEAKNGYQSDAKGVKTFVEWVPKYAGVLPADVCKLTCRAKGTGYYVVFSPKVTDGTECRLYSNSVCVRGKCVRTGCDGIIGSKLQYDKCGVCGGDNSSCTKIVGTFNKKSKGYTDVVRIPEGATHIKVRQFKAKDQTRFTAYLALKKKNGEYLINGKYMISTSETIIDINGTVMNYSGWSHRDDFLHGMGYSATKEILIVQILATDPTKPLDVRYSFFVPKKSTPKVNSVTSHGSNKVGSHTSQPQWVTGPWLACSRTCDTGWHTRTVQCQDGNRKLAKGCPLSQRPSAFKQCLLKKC
# Details: read-out: hADAMTS-5 potency IC50
Quantity: log10(IC50) (log10 of the value in nM)
Friendly reminder: values = log10 of IC50, unit nM.

These solved cases illustrate the format of a correct answer.
Molecule	Experimental Target	Reported
Cc1nc(C2(CCC(=O)N3CCN(c4cc(F)cc(F)c4)[C@@H](C)C3)NC(=O)NC2=O)co1 (stereo partly shown) [compound 395]	UniProt Q9UNA0	1.59
Cc1ncccc1-c1cccc(N2CCN(C(=O)CCC3(C4CC4)NC(=O)NC3=O)C[C@@H]2C)c1 (stereo partly shown) [compound 323]	UniProt Q9UNA0	3.09
Cc1cccc(C2(CCC(=O)N3CCN(c4cc(F)cc(Cl)c4)[C@@H](C)C3)NC(=O)NC2=O)n1 (stereo partly shown) [compound 307]	UniProt Q9UNA0	1.64
CC(CC1(C2CC2)NC(=O)NC1=O)C(=O)N1CCN(c2cc(Cl)cc(Cl)c2)CC1 (stereo not shown) [compound 172]	UniProt Q9UNA0	1.23
C[C@H]1CN(C(=O)CCC2(C3CC3)NC(=O)NC2=O)CCN1c1ccc(Cl)c(Cl)c1 (stereo partly shown) [compound 408]	UniProt Q9UNA0	1.28
C[C@@H](C[C@@]1(C)NC(=O)NC1=O)C(=O)N1CCN(c2cc(F)cc(-c3cn[nH]c3)c2)[C@@H](C)C1 [compound 375]	UniProt Q9UNA0	1.48

Query: Need log10(IC50), item Cc1cc(C2(CCC(=O)N3CCN(c4cc(F)cc(F)c4)[C@@H](C)C3)NC(=O)NC2=O)no1 (stereo partly shown) [compound 387]
Response: 1.57

----------
# Experimental Target: human TACE (Homo sapiens (Human), UniProt P78536)
# Sequence (P78536 whole entry, looked up, change not shown): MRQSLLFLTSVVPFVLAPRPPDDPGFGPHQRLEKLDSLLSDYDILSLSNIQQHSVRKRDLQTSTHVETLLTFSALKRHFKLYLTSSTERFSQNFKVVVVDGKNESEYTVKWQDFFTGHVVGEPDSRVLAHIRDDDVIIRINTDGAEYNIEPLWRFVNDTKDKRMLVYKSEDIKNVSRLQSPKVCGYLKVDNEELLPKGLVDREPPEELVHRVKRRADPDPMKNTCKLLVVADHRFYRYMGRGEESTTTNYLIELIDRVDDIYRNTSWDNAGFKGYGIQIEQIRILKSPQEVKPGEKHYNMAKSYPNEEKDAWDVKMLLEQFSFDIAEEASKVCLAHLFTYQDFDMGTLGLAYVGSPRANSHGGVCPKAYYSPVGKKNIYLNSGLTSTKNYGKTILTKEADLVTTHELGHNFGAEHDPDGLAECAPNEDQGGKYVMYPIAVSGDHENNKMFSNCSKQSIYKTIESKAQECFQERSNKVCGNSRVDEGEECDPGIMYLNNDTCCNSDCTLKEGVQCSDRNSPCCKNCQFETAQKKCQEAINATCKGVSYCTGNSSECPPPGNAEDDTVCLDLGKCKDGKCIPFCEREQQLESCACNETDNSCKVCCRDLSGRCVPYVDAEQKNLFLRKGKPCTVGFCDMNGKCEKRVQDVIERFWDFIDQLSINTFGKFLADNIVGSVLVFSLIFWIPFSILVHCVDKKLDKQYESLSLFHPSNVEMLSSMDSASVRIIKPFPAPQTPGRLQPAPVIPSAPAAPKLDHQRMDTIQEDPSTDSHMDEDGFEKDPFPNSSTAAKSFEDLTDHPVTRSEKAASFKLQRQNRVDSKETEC
# Details: read-out: TACE potency IC50
pIC50: −log10 of the molar value.
pIC50 reference

These solved cases illustrate the format of a correct answer.
Molecule	pIC50
CN(C)CCOc1ccc(C2(CCC(=O)N3CCN(c4cccc(Cl)c4)CC3)NC(=O)NC2=O)cc1 (centres unmarked)	< 4.70
CC(CC1(C)NC(=O)NC1=O)C(=O)N1CCN(c2ccc(F)c(Cl)c2)[C@@H](C)C1 (some centres unmarked) [compound 422]	< 5.40
Cc1ccc(F)cc1N1CCN(C(=O)C(C)CC2(C)NC(=O)NC2=O)C[C@@H]1C (some centres unmarked)	< 5.40
Cc1c(F)cccc1N1CCN(C(=O)CCC2(c3cccnc3)NC(=O)NC2=O)CC1 (centres unmarked)	< 5.40

Query: Recorded pIC50 for C[C@H]1CN(C(=O)CCC2(c3cocn3)NC(=O)NC2=O)CCN1c1cc(Cl)cc(Cl)c1 (some centres unmarked) with human TACE (Homo sapiens (Human), UniProt P78536), please?
Response: 5.46

Query: Recorded pIC50 for Cc1cc(Cl)c(F)cc1N1CCN(C(=O)CCC2(C)NC(=O)NC2=O)CC1 (centres unmarked) with human TACE (Homo sapiens (Human), UniProt P78536), please?
Response: < 5.45

Query: Recorded pIC50 for C[C@@H](CC1(C2CC2)NC(=O)NC1=O)C(=O)N1CCN(c2cccc(-c3cn[nH]c3)c2)[C@@H](C)C1 (some centres unmarked) with human TACE (Homo sapiens (Human), UniProt P78536), please?
Response: < 5.40

Query: Recorded pIC50 for C[C@H]1CN(C(=O)CCC2(C3CC3)NC(=O)NC2=O)CCN1c1cnc2ccccc2c1 (some centres unmarked) with human TACE (Homo sapiens (Human), UniProt P78536), please?
Response: < 5.40
